- protocolDescription: A549 cell viability effects, profiling panel, calcein-AM fluorescence, 48 h, basal (AID 1162); further: test concentration not given here
- runConditions: higher = more signal
propertyMeasured: z-score
Numbers only.

// known answers, use as guide
>>> print(df.to_string())
                                   molecule   value
0  COc1ccc(C(O)C2C=CC3C(=O)N(c4ccccc4)C(=O)C3N2Nc2ccccc2F)cc1 (stereo not drawn)  -0.775
1  CCC(CC)C(O)C1C=CC2C(=O)N(c3ccccc3)C(=O)C2N1Nc1ccc([N+](=O)[O-])cc1 (stereo not drawn)  -0.878

Attention now turns to another entry.
Entry CC(C)N1CC=CC23O[C@@H]4/C=C\CCCOC(=O)C4[C@H]2C(=O)N(CCCCCCO)[C@@H]3C1=O (stereo partly drawn) has what z-score?
1.46

###

- testTarget: Focal adhesion kinase 1 (Homo sapiens)
- protocolDescription: small-molecule microarray binders of FAK, primary screen, biochemical, 635/667 nm fluorescence, BSA, DTT (AID 1130);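 further: composite of spot emission at 667 nm and signal to noise over triplicate slides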
- runConditions: PTK2 binding, 635 nm fluorescence, higher = more signal
propertyMeasured: composite z-score
Numbers only.

compound	testTarget	composite z-score
COc1ccc(NC(=O)O[C@H]2[C@@H]3OC(=O)[C@H](Cc4cccc(Br)c4)C/C=C/C[C@@H](Cc4cccc(Br)c4)C(=O)O[C@H]3[C@@H](OC)O[C@@H]2CO)cc1	Focal adhesion kinase 1 (Homo sapiens)	1.73
O=c1cccc(-c2ccco2)o1	Focal adhesion kinase 1 (Homo sapiens)	0.082
C=CC[C@H](OC(=O)Nc1ccc(SC)cc1)c1ccc(OCCO)cc1	Focal adhesion kinase 1 (Homo sapiens)	-0.452

Recorded composite z-score for C=CCC(OC(C)=O)[C@@H]1[C@@H](N(Cc2cccc3ccccc23)C(=O)Cc2ccc(F)cc2)c2cc(OCCCO)ccc2N1C(=O)c1ccc(-c2ccccc2)cc1 (some centres undefined) , please?
0.365

###

- protocolDescription: A549 lung cancer cell viability effects, profiling panel, resazurin fluorescence, 24 h, PK04 Diversity Set (AID 1171); further: test concentration not given here
- runConditions: higher = more signal, called active from +8 up or from −8 down
Please respond with reported z-score for every item in the list.
Give bare numbers.

>>> print(df.to_string())
                                  cpdsmiles  propertymeasured    value
0  CN(C)CCCCNC(=O)[C@H]1C[C@H]2C(=O)N[C@@H](CCCC[N+](C)(C)C)C(=O)N2[C@H]1c1ccc(O)cc1           z-score    0.625
1  C#C[C@@H](CC)O[Si](C#CCCCC#N)(C(C)C)C(C)C           z-score  -0.0413
2  COC(=O)[C@@]1(Cc2ccc(OC)cc2)[C@H]2c3cc(C(=O)N4CCCC4)n(Cc4ccc(S(C)(=O)=O)cc4)c3C[C@H]2CN1C(=O)c1ccccc1           z-score    0.105

The record that follows has no z-score shown yet.
Reported z-score for "Cc1c(NC(=O)/C(C#N)=C/c2ccccc2Cl)c(=O)n(-c2ccccc2)n1C" : what is it?
-0.357

###

- protocolDescription: E. coli acrAB mutant growth effects, primary screen, E. coli filamentation inducers, strain DRC39, OD650, 48 h (AID 1179);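 further: screen aims at cell division blockers that make cells filament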
- runConditions: E. coli DRC39 delta-acrAB growth, higher = more signal, called active from +8 up or from −8 down
Tag: TRUE if measured z-score is not below 0.1, FALSE if it is.

compound	assignedCategory
C=C(C(=O)CC[C@@H](OC(=O)c1ccccc1-c1ccccc1C(=O)O)c1ccccc1OCCO)C(C)C	TRUE
O=C1O[C@H](c2ccccc2)[C@H](c2ccccc2)N2[C@H]1[C@@H](C(=O)Nc1nc3ccccc3s1)[C@]1(C(=O)Nc3ccc(C#CC4=CCCCC4)cc31)[C@H]2c1ccc(O)cc1	TRUE
O=C1C[C@@](C(=O)NCc2ccccc2)(c2ccc([N+](=O)[O-])cc2)[C@@H](c2ccc(CO)cc2I)N1CC12CC3CC(CC(C3)C1)C2	TRUE
CC(C)C(=C=CC[C@@H](O)c1cccc(OCCO)c1)C[C@@H](O)COCc1ccccc1	TRUE
CCOC(=O)C[C@H]1[C@H](OC(=O)c2ccc(-c3ccccc3)cc2)[C@@H](NC(=O)CC(C)C)c2cc(OCCCO)ccc2N1C(=O)c1ccccc1	FALSE

Hello, I need to know if C=CCC(OC(C)=O)[C@@H]1[C@@H](N(Cc2cc3ccccc3o2)C(=O)c2ccc(-c3ccccc3)cc2)c2cc(OCCCO)ccc2N1C(=O)Cc1ccc(OC)cc1 (stereo partly specified) has measured z-score not below 0.1. Thanks!
FALSE

###

- testTarget: Calmodulin-1 (Homo sapiens) (UniProt P0DP23)
- protocolDescription: calcium-bound CALM1 binders on microarrays, profiling panel, artefact control for SMM control-protein annotation, biochemical, small-molecule microarray, Cy5-labelled CALM1, plus calcium (AID 1112);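 further: score merges spot fluorescence with signal to noise from triplicate slides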
- runConditions: Cy5-CALM1 binding fluorescence, higher = more signal
Returns 1 (yes) if the recorded composite z-score is greater than or equal to 0.3, and 0 (no) otherwise.

Observe how each entry below is paired with its result.
compound	assignedCategory
CCOC(=O)C[C@H]1[C@H](OC(=O)c2ccc(C(=O)c3ccccc3)cc2)[C@@H](NC(=O)CC(C)C)c2cc(OCCCO)ccc2N1C(=O)Cc1ccc(OC)cc1	0 (no)
Cc1ccc([C@H]2C(C(=O)O)=C[C@@H](C(C)(C)C)N2S(=O)(=O)c2ccc(C)cc2)cc1	1 (yes)
NC(=O)[C@@H]1[C@H]2C(=O)O[C@H](c3ccccc3)[C@H](c3ccccc3)N2[C@H](c2ccc(OCCO)cc2)[C@@]12C(=O)Nc1ccc(C#CCCO)cc12	0 (no)

Read the next record carefully.
Is it the case that "O=c1cccc(-c2ccco2)o1" has composite z-score reaching or exceeding 0.3?
0 (no)

###

- protocolDescription: inhibitors of hydroxyurea-induced Chk1 phosphorylation, primary screen, imaging, HeLa, phospho-Chk1 nuclear intensity (AID 1187); further: test concentration not given here
- runConditions: hydroxyurea-induced phospho-Chk1 immunofluorescence imaging, higher = more signal
propertyMeasured: z-score
Numbers only.

compound	z-score
COc1ccc([Si](C)(C)[C@H]2[C@H](CCO)O[C@@]3(C(=O)N(Cc4ccc(N5C(=O)c6ccccc6Oc6ccccc65)cc4)c4ccccc43)[C@@H]2C)cc1	-0.583
[N-]=[N+]=NCc1ccccc1[C@@H]1OC(c2ccc(OCCCO)cc2)=N[C@]1(Cc1ccccc1N=[N+]=[N-])C(=O)N1CCCCC1	-0.0332
NCCCCCNC(=O)[C@H]1C[C@H]2C(=O)N[C@@H](Cc3ccccc3)C(=O)N2[C@H]1c1ccc(O)cc1	0.921
NC(=O)NCC#Cc1ccc2c(c1)[C@]1(C(=O)N2)[C@H](C(=O)N2CCN(c3ncccn3)CC2)[C@H]2C(=O)O[C@H](c3ccccc3)[C@H](c3ccccc3)N2[C@@H]1c1ccc(OCCO)cc1	-0.0071

For each of the items listed, what is its z-score?
1. CCCCC(=O)N(CCN1CCOCC1)[C@@H]1CC(C(=O)NCCO)=C[C@H](Oc2c(I)cc(CO)cc2OC)[C@H]1O
2. COC(=O)C1=CC(CCCO)=CC(C)N(Cc2cccc(OC(F)(F)F)c2)C=C1C(=O)OC (stereo unspecified)
3. COC(=O)[C@@]1(Cc2ccc(OC)cc2)[C@H]2c3cc(C(=O)N4CCCC4)n(Cc4ccc(OC(F)(F)F)cc4)c3C[C@H]2CN1C(=O)c1ccccc1
4. [N-]=[N+]=NCc1ccccc1[C@@H]1OC(c2ccc(OCCCO)cc2)=N[C@]1(Cc1ccccc1N=[N+]=[N-])C(=O)NCCN1CCOCC1
5. [N-]=[N+]=NCc1ccccc1C[C@]1(C(=O)N2CCOCC2)COC(c2ccc(OCCCO)cc2)=N1
6. COc1ccc(C(O)C2C=CC3C(=O)N(c4ccccc4)C(=O)C3N2Nc2ccccc2)cc1 (stereo unspecified)
7. COc1cc(C(O)C2C=CC3C(=O)N(Cc4ccccc4)C(=O)C3N2n2cnnc2)cc(OC)c1OC (stereo unspecified)

1: -0.31; 2: -0.655; 3: 0.569; 4: -0.22; 5: -0.718; 6: -0.392; 7: 0.263

###

- testTarget: Neurogenic locus notch homolog protein 3 (Homo sapiens)
- protocolDescription: NOTCH3 binders on small-molecule microarray, primary screen, biochemical, 635/667 nm fluorescence (AID 1096)
- runConditions: NOTCH3 binding, 635 nm fluorescence, higher = more signal
propertyMeasured: composite z-score
Numbers only.

Solved entries (count: 3):
                                   compound   propertymeasured    value
0  CC(C)(C)OC(=O)CC[C@]1(C(=O)N2CCCCC2)COC(c2ccc(OCCCO)cc2)=N1  composite z-score     0.79
1  [N-]=[N+]=Nc1ccccc1C[C@]1(C(=O)NCc2ccccc2)COC(c2ccc(OCCCO)cc2)=N1  composite z-score     1.08
2  CN(C)CCCC[C@@H]1NC(=O)[C@@H]2C[C@H](C(=O)O)[C@H](c3cccc(OCCO)c3)N2C1=O  composite z-score  -0.0905

Would you kindly look at the next entry?
Quick check: composite z-score of COc1cc(NN2C(C(O)C3CCCCC3)C=CC3C(=O)N(C)C(=O)C32)cc(OC)c1OC (centres undefined) ?
1.09
